Test system: KRAS-mutant PDC complex spheroid viability;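 also: viability read after seven days of compound exposure; 100% = DMSO vehicle-treated spheroids so lower means less viable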
method notes: Anticancer human tumor 186277-243-T-J2-PDC patient-derived colon adenocarcinoma cell line growth inhibition [KRAS2]
settings: second compound 3.16 µM; first compound 0.316 µM; stronger effect = lower value
measurement name: viability, T/C (%)
Respond with the bare value in %.

Known results for compounds:
[[record]]
compound = "COC(=O)c1ccc2c(C(=Nc3ccc(N(C)C(=O)CN4CCN(C)CC4)cc3)c3ccccc3)c(O)[nH]c2c1 + C=CC(=O)N1CCN(c2nc(OCC3CCCN3C)nc3c2CCN(c2cccc4cccc(C)c24)C3)CC1CC#N"
assayed_system = "KRAS-mutant PDC complex spheroid viability"
value = 0.23

[[record]]
compound = "COc1cc(Nc2ncc3c(n2)-c2ccc(Cl)cc2C(c2c(F)cccc2OC)=NC3)ccc1C(=O)O + C=CC(=O)N1CCN(c2nc(OCC3CCCN3C)nc3c2CCN(c2cccc4cccc(C)c24)C3)CC1CC#N"
assayed_system = "KRAS-mutant PDC complex spheroid viability"
value = 0.19

[[record]]
compound = "O=C(c1cc(Cc2n[nH]c(=O)c3ccccc23)ccc1F)N1CCN(C(=O)C2CC2)CC1 + CNCc1ccccc1-c1csc(C(C)Nc2nc(C)nc3cc(OC)c(OC)cc23)c1"
assayed_system = "KRAS-mutant PDC complex spheroid viability"
value = 94.1

[[record]]
compound = "COC(=O)c1ccc2c(C(=Nc3ccc(N(C)C(=O)CN4CCN(C)CC4)cc3)c3ccccc3)c(O)[nH]c2c1 + C=CC(=O)N1CCN(c2nc(=O)n(-c3c(C)ccnc3C(C)C)c3nc(-c4c(O)cccc4F)c(F)cc23)C(C)C1"
assayed_system = "KRAS-mutant PDC complex spheroid viability"
value = 53.5

[[record]]
compound = "CC1(C)CCC(CN2CCN(c3ccc(C(=O)NS(=O)(=O)c4ccc(NCC5CCOCC5)c([N+](=O)[O-])c4)c(Oc4cnc5[nH]ccc5c4)c3)CC2)=C(c2ccc(Cl)cc2)C1 + CC1OCC2(CCN(c3cnc(Sc4ccnc(N)c4Cl)c(N)n3)CC2)C1N"
assayed_system = "KRAS-mutant PDC complex spheroid viability"
value = 100

[[record]]
compound = "CC(=O)OC12COC1CC(O)C1(C)C(=O)C(O)C3=C(C)C(OC(=O)C(O)C(NC(=O)OC(C)(C)C)c4ccccc4)CC(O)(C(OC(=O)c4ccccc4)C21)C3(C)C (centres undefined) + COc1cc2nc(C)nc(NC(C)c3cc(N)cc(C(F)(F)F)c3)c2cc1OC1CCOC1"
assayed_system = "KRAS-mutant PDC complex spheroid viability"
value = 2.51

[[record]]
compound = "COC(=O)c1ccc2c(C(=Nc3ccc(N(C)C(=O)CN4CCN(C)CC4)cc3)c3ccccc3)c(O)[nH]c2c1 + COc1cc2nc(C)nc(NC(C)c3cc(N)cc(C(F)(F)F)c3)c2cc1OC1CCOC1"
assayed_system = "KRAS-mutant PDC complex spheroid viability"
value = 114

[[record]]
compound = "CC1(C)CCC(CN2CCN(c3ccc(C(=O)NS(=O)(=O)c4ccc(NCC5CCOCC5)c([N+](=O)[O-])c4)c(Oc4cnc5[nH]ccc5c4)c3)CC2)=C(c2ccc(Cl)cc2)C1 + C=CC(=O)N1CCN(c2nc(OCC3CCCN3C)nc3c2CCN(c2cccc4cccc(C)c24)C3)CC1CC#N"
assayed_system = "KRAS-mutant PDC complex spheroid viability"
value = 0.22


We next turn to a different compound, shown below.
Quick one: viability, T/C of CC1OCC2(CCN(c3cnc(Sc4ccnc(N)c4Cl)c(N)n3)CC2)C1N (centres undefined) + COc1cc2nc(C)nc(NC(C)c3cc(N)cc(C(F)(F)F)c3)c2cc1OC1CCOC1 ?
96.7

Source listed as PubChem BioAssay AID1963875.
